tested on: Leishmania donovani; assay: Antileishmanial activity against Leishmania donovani MHOM/SD/62/1S-CL2D LdBOB amastigotes harboring eGFP infected in human THP1 cells assessed as reduction in number of amastigotes per cell after 96 hrs by DAPI staining based microscopic analysis; format: functional, organism-based; conditions: THP-1, 96 h
pIC50: −log10 of the molar value.
Use 5 as the dividing line for pIC50, with the line itself on the MET side and lower values as NOT MET.

* C[C@@H]1[C@H](O)[C@@H](C)/C=C/C=C/C=C/C=C/C=C/C=C/C=C/[C@H](O[C@@H]2O[C@H](C)[C@@H](O)[C@H](N)[C@@H]2O)C[C@@H]2O[C@](O)(C[C@@H](O)C[C@@H](O)[C@H](O)CC[C@@H](O)C[C@@H](O)CC(=O)O[C@H]1C)C[C@H](O)[C@H]2C(=O)O | MET
* COc1ccc2nc(S(C)(=O)=O)c(NCCO)nc2c1 | NOT MET
* CS(=O)(=O)c1ccc(-c2nc3ccc(Cl)cc3nc2-c2ccc(Cl)cc2)cc1 | MET
* COc1ccc2nc(-c3ccc(S(C)(=O)=O)cc3)c(-c3ccc(Cl)cc3)nc2c1 | NOT MET
* CCCCCCCCCCCCCCCCOP(=O)([O-])OCC[N+](C)(C)C | MET
* CCCCNc1nc2ccccc2nc1S(C)(=O)=O | NOT MET
* C[S+]([O-])c1ccc(-c2nc3ccc(Cl)cc3nc2-c2ccc(Cl)cc2)cc1 (stereo not given) | MET
* Clc1ccc2nc(-c3ccccc3)c(-c3ccccc3)nc2c1 | NOT MET

* * *

tested on: Leishmania donovani; assay: Antileishmanial activity against Leishmania donovani MHOM/SD/62/1S-CL2D LdBOB amastigotes harboring eGFP infected in human THP1 cells assessed as reduction in number of amastigotes per cell after 96 hrs by DAPI staining based microscopic analysis; type: functional, organism-based; conditions: THP-1, 96 h
pIC50: −log10 of the molar value.
Observation Type: pIC50

* CS(=O)(=O)c1nc2ccc(Cl)cc2nc1NC1CCCCC1 | 4.90
* CS(=O)(=O)c1ccc(-c2nc3ccccc3nc2-c2ccc(Cl)cc2)cc1 | 5.00
* CS(=O)(=O)c1ccc(-c2nc3ccc(Br)cc3nc2-c2ccc(Cl)cc2)cc1 | 5.60

* * *

system: Leishmania donovani; test: Antileishmanial activity against Leishmania donovani MHOM/SD/62/1S-CL2D LdBOB amastigotes harboring eGFP infected in human THP1 cells assessed as reduction in number of amastigotes per cell after 96 hrs by DAPI staining based microscopic analysis; format: functional, organism-based; conditions: THP-1, 96 h
pIC50: −log10 of the molar value.
Observation Type: pIC50

- COc1ccc2nc(-c3ccc(-c4ccccc4)cc3)c(-c3ccc(S(C)(=O)=O)cc3)nc2c1: < 4.30
- COc1ccc(-c2nc3ccccc3nc2-c2ccc(OC)cc2)cc1: < 4.30
- COc1ccc2nc(S(C)(=O)=O)c(NCC(C)C)nc2c1: < 4.30

Cited source: ChEMBL document CHEMBL4229526
